molecular target: Multidrug resistance-associated protein 1 (Homo sapiens, UniProt P33527); test: Inhibition of MRP1 in human H69AR cells assessed as daunorubicin accumulation preincubated for 15 mins measured after 180 mins by flow cytometry; assay type: cell-based
Sequence (P33527 whole entry): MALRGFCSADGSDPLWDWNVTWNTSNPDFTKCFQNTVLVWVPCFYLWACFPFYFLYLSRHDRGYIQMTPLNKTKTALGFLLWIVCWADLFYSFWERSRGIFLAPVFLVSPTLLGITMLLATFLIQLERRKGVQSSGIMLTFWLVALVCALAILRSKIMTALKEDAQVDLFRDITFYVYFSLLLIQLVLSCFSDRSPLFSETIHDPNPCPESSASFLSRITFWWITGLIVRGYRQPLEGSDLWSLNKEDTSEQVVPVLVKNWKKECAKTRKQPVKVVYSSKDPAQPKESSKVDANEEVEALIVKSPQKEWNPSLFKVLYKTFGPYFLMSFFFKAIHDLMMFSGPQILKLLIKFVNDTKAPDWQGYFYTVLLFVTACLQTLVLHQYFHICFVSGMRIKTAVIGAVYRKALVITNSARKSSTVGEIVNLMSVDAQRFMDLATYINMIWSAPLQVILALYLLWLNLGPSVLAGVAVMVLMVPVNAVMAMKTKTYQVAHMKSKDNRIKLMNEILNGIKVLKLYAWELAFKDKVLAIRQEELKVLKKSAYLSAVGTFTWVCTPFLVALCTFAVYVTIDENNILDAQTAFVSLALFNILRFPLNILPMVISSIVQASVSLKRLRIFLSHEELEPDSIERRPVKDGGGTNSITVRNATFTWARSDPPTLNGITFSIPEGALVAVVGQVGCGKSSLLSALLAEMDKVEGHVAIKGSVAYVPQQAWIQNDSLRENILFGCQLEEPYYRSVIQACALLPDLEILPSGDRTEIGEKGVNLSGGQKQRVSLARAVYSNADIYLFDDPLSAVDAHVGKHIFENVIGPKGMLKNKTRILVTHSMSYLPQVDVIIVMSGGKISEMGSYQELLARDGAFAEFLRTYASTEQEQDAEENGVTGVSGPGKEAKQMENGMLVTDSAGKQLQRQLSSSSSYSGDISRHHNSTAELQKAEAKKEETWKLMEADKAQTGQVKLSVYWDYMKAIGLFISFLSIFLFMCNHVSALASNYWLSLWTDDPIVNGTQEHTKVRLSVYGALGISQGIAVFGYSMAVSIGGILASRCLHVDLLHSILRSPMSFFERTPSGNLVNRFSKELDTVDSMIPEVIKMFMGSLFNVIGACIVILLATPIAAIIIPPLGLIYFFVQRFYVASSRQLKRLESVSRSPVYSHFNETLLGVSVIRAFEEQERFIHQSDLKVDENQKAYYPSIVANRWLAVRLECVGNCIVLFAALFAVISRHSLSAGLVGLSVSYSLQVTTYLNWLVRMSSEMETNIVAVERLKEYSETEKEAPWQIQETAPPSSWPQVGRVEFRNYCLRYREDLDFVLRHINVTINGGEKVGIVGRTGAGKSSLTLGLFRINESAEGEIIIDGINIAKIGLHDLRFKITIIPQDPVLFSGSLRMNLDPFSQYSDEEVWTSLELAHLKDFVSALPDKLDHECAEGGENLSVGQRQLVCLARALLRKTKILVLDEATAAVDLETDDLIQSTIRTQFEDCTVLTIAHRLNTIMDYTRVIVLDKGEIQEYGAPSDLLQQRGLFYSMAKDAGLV
Reported log10 of IC50 values for the following compounds.
Parameter value (number): base-10 log of IC50 in nM.

Below, 5 compounds whose answers are already recorded.
Requested field: log10 of IC50. Item: CN1CCN(c2ncnc3c(C#N)c4n(c23)CCCC4)CC1
3.46

Same thing, different compound: N#Cc1cn(CCCc2ccccc2)c2c(N3CCN(CCc4ccccc4)CC3)ncnc12
2.77

Same thing, different compound: N#Cc1c2n(c3c(N4CCN(c5ccccc5)CC4)ncnc13)CCCC2
3.46

Same thing, different compound: N#Cc1cn(CCCc2ccccc2)c2c(N3CCN(Cc4ccccc4)CC3)ncnc12
3.37

Same thing, different compound: CCCn1cc(C#N)c2ncnc(N3CCN(CCc4ccccc4)CC3)c21
2.62

Turning to the following compound.
Requested field: log10 of IC50. Item: N#Cc1c2n(c3c(N4CCN(C(c5ccccc5)c5ccccc5)CC4)ncnc13)CCCC2
3.03

====

biological target: BCRP (ABCG2) (Homo sapiens, UniProt Q9UNQ0); experiment: Inhibition of BCRP (unknown origin) expressed in MDCK2 cells assessed as pheophorbide A accumulation at 10 uM preincubated for 20 mins measured after 120 mins by flow cytometry; format: cell-based, MDCK-II; details: MDCK2 cells expressing BCRP, probe pheophorbide A
Sequence (Q9UNQ0 whole entry): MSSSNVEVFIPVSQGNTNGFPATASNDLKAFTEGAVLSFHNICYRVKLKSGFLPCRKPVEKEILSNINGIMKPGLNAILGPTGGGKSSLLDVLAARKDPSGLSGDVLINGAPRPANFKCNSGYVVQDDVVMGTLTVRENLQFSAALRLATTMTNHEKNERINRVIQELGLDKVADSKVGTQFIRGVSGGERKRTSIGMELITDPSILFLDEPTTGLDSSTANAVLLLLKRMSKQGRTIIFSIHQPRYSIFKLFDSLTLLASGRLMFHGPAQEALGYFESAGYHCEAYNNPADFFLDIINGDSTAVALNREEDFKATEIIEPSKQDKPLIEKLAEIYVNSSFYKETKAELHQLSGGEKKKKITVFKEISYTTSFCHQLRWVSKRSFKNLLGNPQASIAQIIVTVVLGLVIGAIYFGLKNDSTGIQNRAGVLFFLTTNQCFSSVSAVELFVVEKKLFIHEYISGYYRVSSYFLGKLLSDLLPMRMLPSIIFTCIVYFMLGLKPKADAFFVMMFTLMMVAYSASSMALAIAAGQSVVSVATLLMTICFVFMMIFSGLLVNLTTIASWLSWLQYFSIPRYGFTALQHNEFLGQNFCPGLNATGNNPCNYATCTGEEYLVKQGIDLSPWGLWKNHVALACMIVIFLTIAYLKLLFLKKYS
Reported inhibition at 2 h, 10 µM values for the following compounds.

Below, 9 compounds whose answers are already recorded.
Requested field: inhibition at 2 h, 10 µM. Item: N#Cc1cn(CCc2ccccc2)c2c(N3CCN(Cc4ccccc4)CC3)ncnc12
< 25%

Same thing, different compound: CN1CCN(c2ncnc3c(C#N)c4n(c23)CCCC4)CC1
> 25%

Same thing, different compound: N#Cc1c2n(c3c(N4CCN(c5ccccc5)CC4)ncnc13)CCCCC2
> 25%

Same thing, different compound: CC(C)n1cc(C#N)c2ncnc(N3CCN(CCc4ccccc4)CC3)c21
< 25%

Same thing, different compound: N#Cc1c2n(c3c(Nc4ccccc4)ncnc13)CCCC2
> 25%

Same thing, different compound: N#Cc1c2n(c3c(N4CCN(CCc5ccccc5)CC4)ncnc13)CCCC2
> 25%

Same thing, different compound: N#Cc1c2n(c3c(N4CCN(C(c5ccccc5)c5ccccc5)CC4)ncnc13)CCCC2
> 25%

Same thing, different compound: N#Cc1cn(CCCc2ccccc2)c2c(N3CCN(CCc4ccccc4)CC3)ncnc12
< 25%

Same thing, different compound: N#Cc1cn(CCc2ccccc2)c2c(N3CCN(CCc4ccccc4)CC3)ncnc12
< 25%

Turning to the following compound.
Requested field: inhibition at 2 h, 10 µM. Item: N#Cc1cn(-c2ccccc2)c2c(N3CCN(CCc4ccccc4)CC3)ncnc12
< 25%

====

target: BCRP (ABCG2) (Homo sapiens); experiment: Inhibition of BCRP (unknown origin) expressed in MDCK2 cells assessed as pheophorbide A accumulation at 10 uM preincubated for 20 mins measured after 120 mins by flow cytometry; format: cell-based, MDCK-II; details: MDCK2 cells expressing BCRP, probe pheophorbide A
Reported inhibition at 2 h, 10 µM values for the following compounds.

Requested field: inhibition at 2 h, 10 µM. Item: N#Cc1cn(CCCc2ccccc2)c2c(N3CCN(Cc4ccccc4)CC3)ncnc12
< 25%

Same thing, different compound: N#Cc1c2n(c3c(NCc4ccccc4)ncnc13)CCCC2
> 25%

Same thing, different compound: N#Cc1c2n(c3c(N4CCN(CCc5ccccc5)CC4)ncnc13)CCCCC2
> 25%

Same thing, different compound: N#Cc1c2n(c3c(NCCc4ccccc4)ncnc13)CCCC2
> 25%

Same thing, different compound: CCn1cc(C#N)c2ncnc(N3CCN(CCc4ccccc4)CC3)c21
< 25%

Continuing:
Requested field: inhibition at 2 h, 10 µM. Item: N#Cc1cn(Cc2ccccc2)c2c(N3CCN(CCc4ccccc4)CC3)ncnc12
< 25%

Same thing, different compound: N#Cc1cn(-c2ccccc2)c2c(N3CCN(Cc4ccccc4)CC3)ncnc12
< 25%

Same thing, different compound: N#Cc1c2n(c3c(N4CCN(C(c5ccccc5)c5ccccc5)CC4)ncnc13)CCCCC2
> 25%

Same thing, different compound: Cn1cc(C#N)c2ncnc(N3CCN(CCc4ccccc4)CC3)c21
< 25%

Same thing, different compound: N#Cc1cn(Cc2ccccc2)c2c(N3CCN(Cc4ccccc4)CC3)ncnc12
< 25%
